Parameter: melting point. Scope: all listed entries.

Solved entries (count: 5):
> print(dat)
                                 mol.smiles             result
1  Cc1ccc(S(=O)(=O)c2c(N)c3nncn3c3nccnc23)cc1           > 300 °C
2  CCc1ccc(S(=O)(=O)c2c(N)c3nccn3c3nccnc23)cc1  267.5 to 268.5 °C
3  CC(C)c1ccc(S(=O)(=O)c2c(N)c3nccn3c3nccnc23)cc1      241 to 244 °C
4  Cc1ccc(S(=O)(=O)c2c(N)c3nccn3c3nccnc23)cc1      294 to 295 °C
5  CCCc1ccc(S(=O)(=O)c2c(N)c3nccn3c3nccnc23)cc1      231 to 232 °C

# query: melting point of entry `Nc1c(S(=O)(=O)c2ccc(O)cc2)c2nccnc2n2ccnc12` > 300 °C

# query: melting point of entry `COc1ccc(S(=O)(=O)c2c(N)c3nccn3c3nccnc23)cc1` 269 to 270 °C
